Target: T1, V-Set And Immunoglobulin Domain Containing 4 (VSIG4) (human, UniProt Q9Y279 20-283, limits assumed)
T1 construct: also called CRIg; Z39Ig
T1 sequence (looked up): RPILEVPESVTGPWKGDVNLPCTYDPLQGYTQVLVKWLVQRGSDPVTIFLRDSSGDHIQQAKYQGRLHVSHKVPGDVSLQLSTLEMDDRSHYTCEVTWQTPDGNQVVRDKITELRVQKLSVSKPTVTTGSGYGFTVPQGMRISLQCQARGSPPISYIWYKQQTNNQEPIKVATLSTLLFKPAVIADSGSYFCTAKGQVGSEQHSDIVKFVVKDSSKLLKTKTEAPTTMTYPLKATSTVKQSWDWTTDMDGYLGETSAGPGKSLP
Test: kinetic affinity measurement; method not stated
outcome_measure: koff (s⁻¹)
One number for each entry, in s⁻¹.

Before answering, review these 3 worked examples.
INSERT INTO assay_data (binder, outcome_measure, obs_value) VALUES
  ('A1.3 antibody (EU103_T01.01S) (antibody, V domains shown, Generated from A1) VH: QVTLVESGPTLVKPGQTLTLTCTFSGISLTTSGMGVGWIRQPPGKALEWLADIFWDDNKYYNPSLKGRLTITKDTSKNQVYLTMTNMDPVDTATYYCVRVYYKNDGYFDVWGKGTTVTVSS VL: DIVLTQSPLSLPVTLGQPASISCRASKSVTTSGYSFMHWYQQRPGQSPRLLIYLASNLEPGVPDRFSGSGSGTDFTLKISRVEAEDVGVYYCQQSGELPYTFGQGTKLEIK', 'koff', 0.0032),
  ('A2 antibody (EU103_T01.02) (antibody, V domains shown) VH: QVTLKESGPTLVKPTQTLTLTCTFSGISLTTSGMGVGWIRQPPGKALEWLADIFWDDNKYYNPSLKSRLTITKDTSKNQVVLTMTNMDPVDTATYYCVRVYYKNDGYFDVWGKGTTVTVSS VL: DIVLTQSPLSLPVTLGQPASISCRASKSVTTSGYSFMHWYQQRPGQSPRLLIYLASNLEPGVPDRFSGSGSGTDFTLKIFRVEAEDVGVYYCQQSGELPYTFGQGTKLEIK', 'koff', 0.00296),
  ('A2.3 antibody (EU103_T01.02S) (antibody, V domains shown, Generated from A2) VH: QVTLVESGPTLVKPGQTLTLTCTFSGISLTTSGMGVGWIRQPPGKALEWLADIFWDDNKYYNPSLKGRLTITKDTSKNQVYLTMTNMDPVDTATYYCVRVYYKNDGYFDVWGKGTTVTVSS VL: DIVLTQSPLSLPVTLGQPASISCRASKSVTTSGYSFMHWYQQRPGQSPRLLIYLASNLEPGVPDRFSGSGSGTDFTLKIFRVEAEDVGVYYCQQSGELPYTFGQGTKLEIK', 'koff', 0.00308);

Consider the additional binder presented here.
Which koff is reported for this binder? A1 antibody (EU103_T01.01) (antibody, V domains shown) VH: QVTLKESGPTLVKPTQTLTLTCTFSGISLTTSGMGVGWIRQPPGKALEWLADIFWDDNKYYNPSLKSRLTITKDTSKNQVVLTMTNMDPVDTATYYCVRVYYKNDGYFDVWGKGTTVTVSS VL: DIVLTQSPLSLPVTLGQPASISCRASKSVTTSGYSFMHWYQQRPGQSPRLLIYLASNLEPGVPDRFSGSGSGTDFTLKISRVEAEDVGVYYCQQSGELPYTFGQGTKLEIK 0.00328
